Could you please report measured Foxtail, Green plant response rating (0 to 100 scale) for the items listed next?
Tested on: green foxtail (Setaria viridis)
test: Test B pre-/postemergence plant response
Type: in vivo
condition summary: 62 g ai/ha, postemergence; 0 is no effect, 100 is complete control; 13 to 15 days
Description: […] Treated plants and controls were maintained in a greenhouse for 13 to 15 days, after which time all treated plants were visually evaluated and compared to controls. […]
Reply: number alone, nothing else.

The recorded Foxtail, Green plant response rating (0 to 100 scale) for entry "COCCn1c(-c2cc(F)cc(F)c2)ncc(C(=O)C2=C(O)CCCC2=O)c1=O" equals 90

The recorded Foxtail, Green plant response rating (0 to 100 scale) for entry "Cc1ccccc1-c1ncc(C(=O)C2=C(O)CCCC2=O)c(=O)n1-c1ccccc1" equals 60

The recorded Foxtail, Green plant response rating (0 to 100 scale) for entry "COCCCn1c(-c2cc(F)cc(F)c2)ncc(C(=O)C2=C(O)CCCC2=O)c1=O" equals 95

The recorded Foxtail, Green plant response rating (0 to 100 scale) for entry "COCCn1c(-c2cccc(Cl)c2)ncc(C(=O)C2=C(O)CCCC2=O)c1=O" equals 65

The recorded Foxtail, Green plant response rating (0 to 100 scale) for entry COCC(C)n1c(-c2ccccc2)ncc(C(=O)C2=C(O)CCCC2=O)c1=O (centres unmarked) equals 75

====

Could you please report measured Plant response rating, Cocklebur for the items listed next?
Tested on: cocklebur (Xanthium strumarium)
test: Test B pre-/postemergence plant response
Type: in vivo
condition summary: Postemergence, 250 g ai/ha; scale 0 to 100 (0 no effect, 100 complete control)
Reply: number alone, nothing else.

The value of Plant response rating, Cocklebur recorded for "Cc1ccccc1-c1ncc(C(=O)C2=C(O)CCCC2=O)c(=O)n1-c1ccccc1" when tested on cocklebur (Xanthium strumarium) reads 100

The value of Plant response rating, Cocklebur recorded for "Cc1cc(-n2c(-c3ccccc3)ncc(C(=O)C3=C(O)CCCC3=O)c2=O)ccc1F" when tested on cocklebur (Xanthium strumarium) reads 90

The value of Plant response rating, Cocklebur recorded for "CC(C)CC(=O)OC1=C(C(=O)c2cnc(-c3ccccc3)n(-c3ccccc3)c2=O)C(=O)CCC1" when tested on cocklebur (Xanthium strumarium) reads 90

The value of Plant response rating, Cocklebur recorded for "O=C1CCCC(OC(=O)C2CC2)=C1C(=O)c1cnc(-c2ccccc2)n(-c2ccccc2)c1=O" when tested on cocklebur (Xanthium strumarium) reads 95

The value of Plant response rating, Cocklebur recorded for "O=C1CCCC(O)=C1C(=O)c1cnc(-c2ccsc2)n(-c2ccccc2)c1=O" when tested on cocklebur (Xanthium strumarium) reads 95

The value of Plant response rating, Cocklebur recorded for "CCCn1c(-c2ccc(F)cc2)ncc(C(=O)C2=C(O)CCCC2=O)c1=O" when tested on cocklebur (Xanthium strumarium) reads 100

The value of Plant response rating, Cocklebur recorded for COCC(C)n1c(-c2ccccc2)ncc(C(=O)C2=C(O)CCCC2=O)c1=O (centres unmarked) when tested on cocklebur (Xanthium strumarium) reads 100

The value of Plant response rating, Cocklebur recorded for "COCCn1c(-c2cc(F)cc(F)c2)ncc(C(=O)C2=C(O)CCCC2=O)c1=O" when tested on cocklebur (Xanthium strumarium) reads 95

====

Could you please report measured Plant response rating, Bermudagrass for the items listed next?
System: bermudagrass (Cynodon dactylon)
test: Test B pre-/postemergence plant response
Assay type: in vivo
condition summary: Preemergence, 31 g ai/ha; scale 0 to 100 (0 no effect, 100 complete control)
Reply: number alone, nothing else.

The recorded Plant response rating, Bermudagrass for entry "O=C1CCCC(O)=C1C(=O)c1cnc(-c2ccccc2)n(-c2cccc(Br)c2)c1=O" equals 98

The recorded Plant response rating, Bermudagrass for entry "Cn1c(-c2ccccc2)ncc(C(=O)C2=C(O)CCCC2=O)c1=O" equals 95

The recorded Plant response rating, Bermudagrass for entry "CCc1ccccc1-n1c(-c2ccccc2)ncc(C(=O)C2=C(O)CCCC2=O)c1=O" equals 100

The recorded Plant response rating, Bermudagrass for entry "O=C1CCCC(O)=C1C(=O)c1cnc(-c2ccsc2)n(-c2ccccc2)c1=O" equals 98

The recorded Plant response rating, Bermudagrass for entry "O=C1CCCC(O)=C1C(=O)c1cnc(-c2cccc(Cl)c2)n(-c2ccc(Cl)cc2)c1=O" equals 50

The recorded Plant response rating, Bermudagrass for entry "CCc1ccc(-n2c(-c3ccccc3)ncc(C(=O)C3=C(O)CCCC3=O)c2=O)cc1" equals 98

The recorded Plant response rating, Bermudagrass for entry "Cc1ccc(F)cc1-n1c(-c2ccccc2)ncc(C(=O)C2=C(O)CCCC2=O)c1=O" equals 100
